GI50 by entry:
system: OVCAR-3; experiment: NCI tumour cell line growth inhibition, 48 h
Activity calls are given as the source filed them. Cut-off read from the data, not from the text of the source: active = GI50 up to about 1.1 µM and inactive = higher.
OBSERVED_PROPERTY: GI50

# COMPOUND, OBSERVED_PROPERTY, RESULT
records = [
    ("COc1ccc(Nc2nnc(-c3nsc4ccccc34)s2)cc1", "GI50", "63 µM (inactive)"),
    ("CC1=CC(O)CC(C)(C)C1/C=C/C(C)=C/C=C/C(C)=C/C=C/C=C(C)/C=C/C=C(C)/C=C/C1=C(C)CC(O)CC1(C)C (stereo unspecified)", "GI50", "17.3 µM (inactive)"),
    ("O=C1C[C@H](CCC(=O)OCc2ccccc2)NC(=O)C[C@H](CCC(=O)OCc2ccccc2)NC(=O)C[C@H](CCC(=O)OCc2ccccc2)N1", "GI50", "97.1 µM (inactive)"),
    ("CCCCCNc1nonc1N", "GI50", "> 100 µM (inactive)"),
    ("COP(=O)(OC)C(O)/C=C(\\Cl)c1ccc(Cl)cc1 (stereo unspecified)", "GI50", "19.1 µM (inactive)"),
    ("O=CC1OC(=O)c2cc(O)c(O)c(O)c2-c2c(cc(O)c(O)c2O)C(=O)OC1C1OC(=O)c2cc(O)c(O)c(O)c2-c2c(O)c(O)c3oc(=O)c4c(c(O)c(O)c5oc(=O)c2c3c54)-c2c(cc(O)c(O)c2O)C(=O)OCC1O (stereo unspecified)", "GI50", "39.7 µM (inactive)"),
]

---

system: ACHN; assay: NCI tumour cell line growth inhibition, 48 h
Active and inactive are the calls of the source. Cut-off read from the data, not from the text of the source: active = GI50 up to about 1.1 µM and inactive = higher.
Labels: active, inactive

# COMPOUND, GROUP_LABEL
data = [
    ("COC1C2C=CC(C2)[C@H]1[N+](=O)[O-] (some centres not stated)", "inactive"),
    ("C=C1C2C[C@@H]3O[C@H]4C[C@H]5O[C@@]6(C[C@@H]7O[C@]8(C[C@H](C)[C@@H]9O[C@@H]%10CC(CO)O[C@@H]%10C[C@@H]9O8)C[C@H](C)[C@@H]7O6)C[C@H]5O[C@H]4[C@H](C)[C@H]3OC(=O)C[C@H]3CC[C@@H]4OC5[C@H]6O[C@]7(CC[C@H]8CC(=C)[C@H](CC[C@@H](C[C@H]1C)O2)O8)CC6O[C@@H]5[C@@H](O7)[C@H]4O3 (some centres not stated)", "active"),
    ("Cn1cc2ccccc2c1-c1nc(F)nc(Oc2ccc3c(c2)CC[C@@H]2C3CC[C@@]3(C)C2C[C@H](O)[C@@H]3O)n1 (some centres not stated)", "inactive"),
    ("CCOC(=O)C1C(c2ccco2)C2(C#N)C(=N)OC1(C)C2(C#N)C#N (configuration not stated)", "inactive"),
    ("COc1cc(/C=C/c2cc(/C=C/c3ccc(O)c(OC)c3)oc(=O)c2)ccc1O", "inactive"),
    ("COc1ccc(C(=O)/C=C/c2ccc(OCCCOc3ccc(/C=C/C(=O)c4ccc(OC)cc4)cc3)cc2)cc1", "inactive"),
    ("CCCCNC1=C(C(=O)OCC)C(=O)CO1", "inactive"),
]

---

test system: Hs-578T; assay: NCI tumour cell line growth inhibition, 48 h
Calls of active or inactive are those of the source. No stated cut-off is given here; in the data, active = GI50 up to about 1.1 µM and inactive = higher.
GI50 by entry:
OBSERVED_PROPERTY: GI50

# SMILES_TEXT, TARGET_UNDER_TEST, RESULT
records = [
    ("NC(C(=O)OC(=O)c1ccccc1)C(=O)OC(=O)c1ccccc1", "Hs-578T", "59.3 µM (inactive)"),
    ("CCn1c(CCCc2nc3c(=O)n(C)c(=O)n(C)c3[nH]2)nc2c1c(=O)n(C)c(=O)n2C", "Hs-578T", "> 100 µM (inactive)"),
    ("NNc1ncnc2cccc(Cl)c12", "Hs-578T", "> 100 µM (inactive)"),
    ("Nc1ccc(Oc2ccc(C3(c4ccc(Oc5ccc(N)c(O)c5)cc4)C4CC5CC(C4)CC3C5)cc2)cc1O", "Hs-578T", "2.24 µM (inactive)"),
    ("O=c1ccc(=O)c2c1c1[nH]c3ccccc3c1c1c(=O)c3ccccc3c(=O)c21", "Hs-578T", "> 10 µM (inactive)"),
]

---

test system: RPMI-8226; assay: NCI tumour cell line growth inhibition, 48 h
The source made the active and inactive calls. Cut-off read from the data, not from the text of the source: active = GI50 up to about 1.1 µM and inactive = higher.

# MOLECULE, TARGET_UNDER_TEST, GI50
records = [
    ("CCOC(=O)C1(C(=O)OCC)CC(=O)[C@@]2(C1)OCC[C@H]1OC(=O)C[C@H]12", "RPMI-8226", "> 100 µM (inactive)"),
    ("CC(C)C(NCc1c2ccccc2[n+]([O-])c2ccccc12)C(=O)O (stereo unspecified)", "RPMI-8226", "28.2 µM (inactive)"),
    ("c1ncc(C23C4C5C6C4C2C6C53)[nH]1 (stereo unspecified)", "RPMI-8226", "> 100 µM (inactive)"),
    ("CN(C)CC1CCCC/C1=N/O (stereo unspecified)", "RPMI-8226", "> 100 µM (inactive)"),
    ("COC(=O)C(CC(=O)Nc1ccc(C)cc1)C(=O)C(=O)Nc1c(C(C)C)cccc1C(C)C (stereo unspecified)", "RPMI-8226", "> 100 µM (inactive)"),
    ("CC(C)=CCC/C(C)=C/CC/C(C)=C/CSc1ccc(Cl)cc1C(=O)O", "RPMI-8226", "22.6 µM (inactive)"),
    ("NC(=O)NNCc1c(-c2ccccc2)no[n+]1[O-]", "RPMI-8226", "> 100 µM (inactive)"),
    ("CC(=O)O[C@H]1CC[C@@]2(C)C(=CC[C@@H]3C2CC[C@]2(C)Nc4oncc4CC32)C1 (stereo partly specified)", "RPMI-8226", "16.9 µM (inactive)"),
    ("COc1ccc2oc(=O)cc(C)c2c1", "RPMI-8226", "> 100 µM (inactive)"),
    ("Cn1c(=O)cc(N2CCCC2)[nH]c1=O", "RPMI-8226", "> 100 µM (inactive)"),
    ("COc1ccc(Nc2nnc(-c3nsc4ccccc34)s2)cc1", "RPMI-8226", "22.9 µM (inactive)"),
]

---

test system: OVCAR-5; test: NCI tumour cell line growth inhibition, 48 h
The source made the active and inactive calls. Rule as the data show it: active = GI50 up to about 1.1 µM and inactive = higher.
GI50 by entry:
OBSERVED_PROPERTY: GI50

# COMPOUND, OBSERVED_PROPERTY, RESULT
records = [
    ("CSCC[C@H](NC(=O)[C@H](CC(C)C)NC(=O)[C@@H](Cc1ccccc1)NC(=O)CNC(=O)[C@@H](NC(=O)[C@H](C)NC(=O)[C@H](Cc1c[nH]c2ccccc12)NC(=O)[C@H](CCC(N)=O)NC(=O)[C@H](N)CC(N)=O)C(C)C)C(N)=O", "GI50", "> 12.5 µM (inactive)"),
    ("Cc1ccc(S(=O)(=O)CN2C(=O)C(c3ccccc3)(c3ccccc3)C23OC(c2ccc(Cl)cc2)=CC3=O)cc1 (stereo not given)", "GI50", "> 10 µM (inactive)"),
    ("COC(=O)C(NC(=O)OC(C)(C)C)P(=O)(OC)OC (stereo not given)", "GI50", "> 100 µM (inactive)"),
    ("CN(/N=C/c1ccnc2ccccc12)c1c([N+](=O)[O-])cc([N+](=O)[O-])cc1[N+](=O)[O-]", "GI50", "> 100 µM (inactive)"),
    ("N#Cc1nnc2ccccc2c1N", "GI50", "> 100 µM (inactive)"),
    ("CC(C)CC1c2[nH]c3ccccc3c2C[C@H]2C(=O)NC(COC(C)(C)C)C(=O)N12 (stereo not given in full)", "GI50", "23.6 µM (inactive)"),
    ("CP(C)C.[Ag][I]", "GI50", "> 100 µM (inactive)"),
    ("CN(C)CCCn1c(-c2ccc(Br)cc2)cs/c1=N\\c1ccccc1", "GI50", "16.5 µM (inactive)"),
    ("c1ccc(-c2cc(-c3cc(-c4ccccc4)n(-c4ccccc4)n3)nn2-c2ccccc2)cc1", "GI50", "> 100 µM (inactive)"),
    ("C[N+](C)(C)/C=N\\c1cccc2c1CCCC2", "GI50", "> 100 µM (inactive)"),
]

---

tested on: OVCAR-4; experiment: NCI tumour cell line growth inhibition, 48 h
The source made the active and inactive calls. Cut-off read from the data, not from the text of the source: active = GI50 up to about 1.1 µM and inactive = higher.

# COMPOUND, GI50
data = [
    ("CCCCOC(=O)Nc1ccc(S(=O)(=O)Nc2c(Cl)cccc2Cl)cc1", "12.1 µM (inactive)"),
    ("CSc1nc2c(c(=O)[nH]1)N=C(c1ccc(Cl)cc1)CC(c1ccccc1)N2 (stereo unspecified)", "11.5 µM (inactive)"),
    ("Cc1ccc(C(O)(c2ccc(C)cc2)c2ccccn2)cc1", "> 100 µM (inactive)"),
    ("O=C(NCCCCCCCCNC(=O)c1cc(-c2ccccc2)nc2ccccc12)c1cc(-c2ccccc2)nc2ccccc12", "> 100 µM (inactive)"),
    ("COC(=O)c1cc(O)nc(O)n1", "> 100 µM (inactive)"),
    ("O=C1C[C@H](CCC(=O)OCc2ccccc2)NC(=O)C[C@H](CCC(=O)OCc2ccccc2)NC(=O)C[C@H](CCC(=O)OCc2ccccc2)N1", "> 100 µM (inactive)"),
    ("CN(Cc1cnc2nc(N)nc(N)c2n1)c1ccc(C(=O)NCCCS(=O)(=O)O)cc1", "> 100 µM (inactive)"),
    ("COc1cccc(/C=C(/C(=O)O)c2cc(OC)c(OC)c(OC)c2)c1", "> 100 µM (inactive)"),
    ("COC(=O)/C=C(C)/C=C/c1cc(C(C)=O)c(C)o1", "94.2 µM (inactive)"),
    ("COC(=O)C(NC(=O)OC(C)(C)C)P(=O)(OC)OC (stereo unspecified)", "> 100 µM (inactive)"),
    ("COc1ccc2nc3ccccc3c(NCCCCN(C)CCCl)c2c1", "0.0889 µM (active)"),
    ("CCCCCCCCCCCCCCCCOP(=O)([O-])OCC[N+](C)(C)C [MILTEFOSINE]", "18.2 µM (inactive)"),
    ("O=C(Cc1nc2ccccc2c(=O)n1-c1ccccc1Cl)c1ccncc1", "68.2 µM (inactive)"),
    ("CCOC(=O)c1cc(C2CCN(c3ccccc3)C2=O)c(C(=O)/C=C(/C)N)[nH]1 (stereo unspecified)", "42.5 µM (inactive)"),
    ("Cc1ccc2[nH]c3c(c2c1)CCC/C3=N/N=C(N)N", "2.76 µM (inactive)"),
    ("Nc1c(S(=O)(=O)c2ccc(Cl)cc2)c2nc3ccccc3nc2n2ccnc12", "14.5 µM (inactive)"),
    ("CC[C@]12C=CCN3CCC4(c5cc(/N=N/c6ccccc6)c(OC)cc5N(C)[C@H]4[C@@](O)(C(=O)OC)[C@@H]1OC(C)=O)[C@@H]32 (stereo partly specified)", "17.1 µM (inactive)"),
    ("c1ncc(C23C4C5C6C4C2C6C53)[nH]1 (stereo unspecified)", "> 100 µM (inactive)"),
    ("Cn1cccc1-c1ccc(-c2ccc(CO)[se]2)[se]1", "2.61 µM (inactive)"),
    ("Cc1nc2ccccc2c(=O)n1CC(=O)O", "> 100 µM (inactive)"),
    ("O=C(N/N=C(/CCN1CCCC1)CC(c1ccccc1)c1c(O)c2ccccc2oc1=O)c1ccncc1 (stereo unspecified)", "> 100 µM (inactive)"),
]
